target: human Dopamine D2L receptor (Homo sapiens, UniProt P14416); construct: expressed in transfected cells; host or cells: CHO cells (membranes); test: In vitro binding affinity for human D2L receptor ([3H]Spiperone)
Sequence (P14416 whole entry): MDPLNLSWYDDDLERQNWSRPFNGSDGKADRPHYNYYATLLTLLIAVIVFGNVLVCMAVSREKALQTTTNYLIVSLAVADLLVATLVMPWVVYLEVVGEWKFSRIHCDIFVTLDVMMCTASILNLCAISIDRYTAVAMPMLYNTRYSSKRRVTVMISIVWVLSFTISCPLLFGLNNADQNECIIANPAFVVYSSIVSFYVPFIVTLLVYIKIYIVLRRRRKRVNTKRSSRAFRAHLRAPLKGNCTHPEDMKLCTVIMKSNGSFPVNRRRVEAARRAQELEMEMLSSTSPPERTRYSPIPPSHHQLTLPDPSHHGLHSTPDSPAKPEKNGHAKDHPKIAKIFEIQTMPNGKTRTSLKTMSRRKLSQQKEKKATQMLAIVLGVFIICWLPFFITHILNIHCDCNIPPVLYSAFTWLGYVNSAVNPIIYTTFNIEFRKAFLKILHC
assayReadout: IC50 (nM)

1. Fc1ccc2c(c1)[C@H]1O[C@@H](CN3CCN(Cc4ccc(Cl)cc4)CC3)C[C@@H]1c1ccccc1C2 [Compound 42]: 28.2
2. Cc1ccccc1CN1CCN(C[C@H]2C[C@@H]3c4ccccc4Cc4ccc(F)cc4[C@H]3O2)CC1 [Compound 43]: 44.7
3. Fc1ccc(CN2CCN(C[C@H]3C[C@@H]4c5ccccc5Cc5ccc(F)cc5[C@H]4O3)CC2)cc1 [Compound 47]: 9.12
4. Fc1ccc2c(c1)[C@H]1O[C@@H](CN3CCN(Cc4ccccc4)CC3)C[C@@H]1c1ccccc1C2 [Compound 45]: 7.94
5. Fc1ccc2c(c1)[C@H]1O[C@@H](CN3CCN(Cc4ccc(C(F)(F)F)cc4)CC3)C[C@@H]1c1ccccc1C2 [Compound 48]: 85.1

---

molecular target: human cloned 5-HT2A receptor, expressed in L929 cells (Homo sapiens, UniProt P28223); construct: expressed in transfected cells; host or cells: L929 cells; assay: In vitro radioligand binding affinity for 5-HT2A receptor ([125I]R91150); details: human cloned receptor in L929 cells, [125I]R91150; read-out: 5-HT2A pIC50 (converted)
Catalogue of log10 of IC50 readings, one per entry.
assayReadout: log10 of IC50 (log10 of the value in nM)

1) CC(C)OC(=O)N1CCN(C[C@H]2C[C@@H]3c4ccccc4Cc4ccc(F)cc4[C@H]3O2)CC1: 0.71
2) CC1CCCN1C[C@H]1C[C@@H]2c3ccccc3Cc3ccc(F)cc3[C@H]2O1 (mixture of isomers): 0.93
3) CC(=O)OCCN1CCN(C[C@H]2C[C@@H]3c4ccccc4Cc4ccc(F)cc4[C@H]3O2)CC1: 1.16
4) CC(C)C(=O)N1CCN(C[C@H]2C[C@@H]3c4ccccc4Cc4ccc(F)cc4[C@H]3O2)CC1: 0.58
5) OC(Cc1ccccc1)CN1CCN(CC2CC3c4ccccc4Cc4ccc(F)cc4C3O2)CC1 (stereo not drawn): 0.68
6) Fc1ccc2c(c1)[C@H]1O[C@@H](CN3CCCCCC3)C[C@@H]1c1ccccc1C2: 0.99
7) OCCN1CCN(C[C@H]2C[C@@H]3c4ccccc4Sc4ccc(F)cc4[C@H]3O2)CC1: -0.16
8) COC(=O)N1CCN(C[C@H]2C[C@@H]3c4ccccc4Cc4ccc(F)cc4[C@H]3O2)CC1: 0.67
9) Fc1ccc2c(c1)C1OC(CN3CCCC3)CC1c1ccccc1C2 (stereo not drawn): 0.67

---

Catalogue of IC50 readings, one per entry.
biological target: human cloned 5-HT2A receptor, expressed in L929 cells (Homo sapiens, UniProt P28223); construct: expressed in transfected cells; host or cells: L929 cells; assay: In vitro radioligand binding affinity for 5-HT2A receptor ([125I]R91150); conditions: human cloned receptor in L929 cells, [125I]R91150; read-out: 5-HT2A pIC50 (converted)
assayReadout: IC50 (nM)

1. Fc1ccc2c(c1)C1OC(CN3CCCCC3)CC1c1ccccc1C2 (centres unmarked): 1.91
2. COCCN1CCN(C[C@H]2C[C@@H]3c4ccccc4Cc4ccc(F)cc4[C@H]3O2)CC1: 1.51
3. CC(C)CN1CCN(C[C@H]2C[C@@H]3c4ccccc4Cc4ccc(F)cc4[C@H]3O2)CC1: 26.9
4. CCOCCN1CCN(C[C@H]2C[C@@H]3c4ccccc4Cc4ccc(F)cc4[C@H]3O2)CC1: 0.851
5. CCCCOC(=O)N1CCN(C[C@H]2C[C@@H]3c4ccccc4Cc4ccc(F)cc4[C@H]3O2)CC1: 11.7
6. CCCCC(O)CN1CCN(CC2CC3c4ccccc4Cc4ccc(F)cc4C3O2)CC1 (centres unmarked): 10
7. CCOC(=O)N1CCN(C[C@H]2C[C@@H]3c4ccccc4Cc4ccc(F)cc4[C@H]3O2)CC1: 4.27
8. CC1CCN(C[C@H]2C[C@@H]3c4ccccc4Cc4ccc(F)cc4[C@H]3O2)CC1: 3.89

---

molecular target: human cloned 5-HT2A receptor, expressed in L929 cells (Homo sapiens, UniProt P28223); construct: expressed in transfected cells; host or cells: L929 cells; experiment: In vitro radioligand binding affinity for 5-HT2A receptor ([125I]R91150)
assayReadout: log10(IC50) (log10 of the value in µM)

1. Fc1ccc2c(c1)[C@H]1O[C@@H](CN3CCN(Cc4ccccc4)CC3)C[C@@H]1c1ccccc1C2: -1.73
2. Cc1ccccc1CN1CCN(C[C@H]2C[C@@H]3c4ccccc4Cc4ccc(F)cc4[C@H]3O2)CC1: -1.39
3. Fc1ccc2c(c1)[C@H]1O[C@@H](CN3CCN(Cc4ccc(Cl)cc4)CC3)C[C@@H]1c1ccccc1C2: -1.31
4. Fc1ccc(CN2CCN(C[C@H]3C[C@@H]4c5ccccc5Cc5ccc(F)cc5[C@H]4O3)CC2)cc1: -1.51
5. Fc1ccc2c(c1)[C@H]1O[C@@H](CN3CCN(Cc4ccc(C(F)(F)F)cc4)CC3)C[C@@H]1c1ccccc1C2: -0.63

---

target: human cloned 5-HT2A receptor, expressed in L929 cells (Homo sapiens); construct: expressed in transfected cells; host or cells: L929 cells; assay: In vitro radioligand binding affinity for 5-HT2A receptor ([125I]R91150); conditions: human cloned receptor in L929 cells, [125I]R91150; read-out: 5-HT2A pIC50 (converted)
Catalogue of IC50 readings, one per entry.
assayReadout: IC50 (nM)

1. CC(C)(C)OCCN1CCN(C[C@H]2C[C@@H]3c4ccccc4Cc4ccc(F)cc4[C@H]3O2)CC1 [Compound 36]: 0.955
2. OC(CCN1CCN(C[C@H]2C[C@@H]3c4ccccc4Cc4ccc(F)cc4[C@H]3O2)CC1)c1ccc(F)cc1 (stereo partly shown) [Compound 46]: 5.13
3. Fc1ccc2c(c1)[C@H]1O[C@@H](CN3CCN(CC(c4ccccc4)c4ccccc4)CC3)C[C@@H]1c1ccccc1C2 [Compound 41]: 97.7
4. OC(CN1CCN(C[C@H]2C[C@@H]3c4ccccc4Cc4ccc(F)cc4[C@H]3O2)CC1)c1ccccc1 (stereo partly shown) [Compound 27]: 9.55

---

target: human cloned 5-HT2C receptor, expressed in CHO cells (Homo sapiens); construct: expressed in transfected cells; host or cells: CHO cells; assay: In vitro radioligand binding affinity for 5-HT2C receptor ([3H]mesulergine); conditions: human cloned receptor in CHO cells, [3H]mesulergine; read-out: 5-HT2C pIC50 (converted)
Sequence (P28335 33-458): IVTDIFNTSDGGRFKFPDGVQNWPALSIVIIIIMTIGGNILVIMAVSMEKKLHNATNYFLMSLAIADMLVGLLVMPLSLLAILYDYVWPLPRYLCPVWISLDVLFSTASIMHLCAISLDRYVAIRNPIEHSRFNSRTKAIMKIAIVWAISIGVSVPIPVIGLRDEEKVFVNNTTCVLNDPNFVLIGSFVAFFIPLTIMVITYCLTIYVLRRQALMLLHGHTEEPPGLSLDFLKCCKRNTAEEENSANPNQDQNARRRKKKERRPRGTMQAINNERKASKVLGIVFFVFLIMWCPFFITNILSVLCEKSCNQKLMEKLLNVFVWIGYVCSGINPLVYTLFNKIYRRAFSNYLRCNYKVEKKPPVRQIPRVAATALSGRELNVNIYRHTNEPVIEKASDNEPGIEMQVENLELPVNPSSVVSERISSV
Response field label takes yes when IC50 is strictly below 10 nM and no in all other cases.

1. CC(=O)OCCN1CCN(C[C@H]2C[C@@H]3c4ccccc4Cc4ccc(F)cc4[C@H]3O2)CC1: no
2. CC(C)C(=O)N1CCN(C[C@H]2C[C@@H]3c4ccccc4Cc4ccc(F)cc4[C@H]3O2)CC1: no
3. CCOC(=O)N1CCN(C[C@H]2C[C@@H]3c4ccccc4Cc4ccc(F)cc4[C@H]3O2)CC1: yes
4. CC1CCCN1C[C@H]1C[C@@H]2c3ccccc3Cc3ccc(F)cc3[C@H]2O1 (mixture of isomers): yes
5. OC(Cc1ccccc1)CN1CCN(CC2CC3c4ccccc4Cc4ccc(F)cc4C3O2)CC1 (centres unmarked): no
6. COCCN1CCN(C[C@H]2C[C@@H]3c4ccccc4Cc4ccc(F)cc4[C@H]3O2)CC1: yes
7. CCCCC(O)CN1CCN(CC2CC3c4ccccc4Cc4ccc(F)cc4C3O2)CC1 (centres unmarked): no
8. Fc1ccc2c(c1)[C@H]1O[C@@H](CN3CCCCCC3)C[C@@H]1c1ccccc1C2: yes
9. OC(CN1CCN(C[C@H]2C[C@@H]3c4ccccc4Cc4ccc(F)cc4[C@H]3O2)CC1)c1ccccc1 (some centres unmarked): no
10. CC1CCN(C[C@H]2C[C@@H]3c4ccccc4Cc4ccc(F)cc4[C@H]3O2)CC1: yes
11. OC(CCN1CCN(C[C@H]2C[C@@H]3c4ccccc4Cc4ccc(F)cc4[C@H]3O2)CC1)c1ccc(F)cc1 (some centres unmarked): yes
12. CCOCCN1CCN(C[C@H]2C[C@@H]3c4ccccc4Cc4ccc(F)cc4[C@H]3O2)CC1: yes
13. COC(=O)N1CCN(C[C@H]2C[C@@H]3c4ccccc4Cc4ccc(F)cc4[C@H]3O2)CC1: no
14. CC(C)CN1CCN(C[C@H]2C[C@@H]3c4ccccc4Cc4ccc(F)cc4[C@H]3O2)CC1: no
15. CC(C)(C)OCCN1CCN(C[C@H]2C[C@@H]3c4ccccc4Cc4ccc(F)cc4[C@H]3O2)CC1: yes
16. CC(C)OC(=O)N1CCN(C[C@H]2C[C@@H]3c4ccccc4Cc4ccc(F)cc4[C@H]3O2)CC1: no
17. Fc1ccc2c(c1)C1OC(CN3CCCC3)CC1c1ccccc1C2 (centres unmarked): yes

---

biological target: human Dopamine D2L receptor (Homo sapiens, UniProt P14416); construct: expressed in transfected cells; host or cells: CHO cells (membranes); assay: In vitro binding affinity for human D2L receptor ([3H]Spiperone); conditions: human D2L-transfected CHO cell membranes, [3H]Spiperone; read-out: D2L pIC50 (converted)
Response field label takes Fulfilled when IC50 is strictly below 3 nM and Not fulfilled in all other cases.

1) OC(CCN1CCN(C[C@H]2C[C@@H]3c4ccccc4Cc4ccc(F)cc4[C@H]3O2)CC1)c1ccc(F)cc1 (some centres unmarked): Fulfilled
2) CC1CCN(C[C@H]2C[C@@H]3c4ccccc4Cc4ccc(F)cc4[C@H]3O2)CC1: Fulfilled
3) CCOCCN1CCN(C[C@H]2C[C@@H]3c4ccccc4Cc4ccc(F)cc4[C@H]3O2)CC1: Fulfilled
4) Fc1ccc2c(c1)C1OC(CN3CCCCC3)CC1c1ccccc1C2 (centres unmarked): Not fulfilled
5) CC(C)OC(=O)N1CCN(C[C@H]2C[C@@H]3c4ccccc4Cc4ccc(F)cc4[C@H]3O2)CC1: Not fulfilled
6) OC(CN1CCN(C[C@H]2C[C@@H]3c4ccccc4Cc4ccc(F)cc4[C@H]3O2)CC1)c1ccccc1 (some centres unmarked): Not fulfilled
7) COC(=O)N1CCN(C[C@H]2C[C@@H]3c4ccccc4Cc4ccc(F)cc4[C@H]3O2)CC1: Not fulfilled
8) Fc1ccc2c(c1)C1OC(CN3CCCC3)CC1c1ccccc1C2 (centres unmarked): Not fulfilled
